Every entry's value here was drawn from the RNAGym collection of RNA variant scans (doi:10.1093/nar/gkz1192).

B1: CPEB3 Ribozyme (parent)
chain: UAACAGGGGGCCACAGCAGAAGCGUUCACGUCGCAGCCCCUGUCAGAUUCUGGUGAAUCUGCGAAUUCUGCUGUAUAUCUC

# Variants of: B1
# Assay text: self-cleavage, relative activity (ratio to wild type); higher = more cleavage; in vitro, sequencing
# self-cleavage binned as 0 (below 0.2), 1 (0.2 to below 0.4), 2 (0.4 or more)

Below are worked cases with known answers.
Chain	Classification
UAACAGGGGGCCACAGCAGAAGCGUCCACGUCGCAGCCCCUGUCAGAUUCUGGUGAAUCGGCGAAUUCUGCUGUAUAUCUC	1
UAACAGGGGGCCACAGCAGAAGCGUUCACGUCGCAGCACCUGUCAGAUUCUGGUGCAUCUGCGAAUUCUGCUGUAUAUCUC	0

Exam item: Could you tell me which band "UAACAGGGGGCCACAGCAGAAGCGUUCACGUCGCAGCCCCUGUCAGAUUUUGGUGAAUCUGCGAAUUCUGCAGUAUAUCUC" belongs to?
Marked response: 1

Exam item: Could you tell me which band "UAUCAGGGGGCCACAGCAGAAGCGUUCACGUCGCAGCCCCUGUCAGAUUCUGGUGAAUCUGCGAAUACUGCUGUAUAUCUC" belongs to?
Marked response: 2

Exam item: Could you tell me which band "UAACAGGUGGCCACAGCAGAAGCGUUCACGUCGCAGCCCCUGUCAGAUUCUGGUGAAUCUGCGAAUUCUGCUGUAAAUCUC" belongs to?
Marked response: 1

Exam item: Could you tell me which band "UAACAGGGGGCCACAGCAGAAGCGUUCACGUCGCUGCCCCUGUCAGAUUCUGGUGAAUCUGCGAAUUCUGGUGUAUAUCUC" belongs to?
Marked response: 0
